Data provenance is the supplement of paper PMC12494721.

- Tested on: Klebsiella aerogenes DSM 30053
- ASSAY DETAILS: fold change of Histamine concentration vs plate DMSO controls (fold change (ratio)); higher = more amine produced, active = hit call of the paper (significant change in both replicates, either direction)
- CONDITION LABEL: 20 µM; incubation time: 27 h, anaerobic, 37 °C
Label label 1 when fold change of Histamine concentration is at or above 1; anything below gets label 0.

COMPOUND | TESTED TARGET | QUALITATIVE LABEL
CO[C@]12C[C@@H](COC(=O)c3cncc(Br)c3)CN(C)[C@@H]1Cc1cn(C)c3cccc2c13 [Nicergoline] | Klebsiella aerogenes DSM 30053 | label 0
COCc1cnc(C2=NC(C)(C(C)C)C(=O)N2)c(C(=O)O)c1 (configuration not stated) | Klebsiella aerogenes DSM 30053 | label 1
COCC(=O)N(c1c(C)cccc1C)C(C)C(=O)OC (configuration not stated) | Klebsiella aerogenes DSM 30053 | label 0
CCC1(c2ccc(N)cc2)CCC(=O)NC1=O (configuration not stated) [Glutethimide, para-amino] | Klebsiella aerogenes DSM 30053 | label 1
Oc1ccc(Cc2ccc(O)cc2)cc1 [Bisphenol F] | Klebsiella aerogenes DSM 30053 | label 1

====

- Tested on: Ruminococcus gnavus DSM 108212
- ASSAY DETAILS: growth (OD595) fold change vs plate DMSO controls (fold change (ratio)); higher = more growth
- CONDITION LABEL: 20 µM; incubation time: 27 h, anaerobic, 37 °C
Structures can show the parent of a compound that is named as a salt.
Label Fulfilled when growth is at or above 1; anything below gets Not fulfilled.

COMPOUND | TESTED TARGET | QUALITATIVE LABEL
CC1(C)C(C(=O)OC(C#N)c2cccc(Oc3ccccc3)c2)C1(C)C (stereo unspecified) | Ruminococcus gnavus DSM 108212 | Fulfilled
CN(C)C(CSS(=O)(=O)O)CSS(=O)(=O)O | Ruminococcus gnavus DSM 108212 | Not fulfilled
CC(COc1ccc(Oc2ccccc2)cc1)Oc1ccccn1 (stereo unspecified) | Ruminococcus gnavus DSM 108212 | Not fulfilled
Nc1c([N+](=O)[O-])ccc(Oc2ccccc2)c1Cl | Ruminococcus gnavus DSM 108212 | Fulfilled
CC(C)(C)NCC(O)c1ccccc1Cl (stereo unspecified) [Tulobuterol Hydrochloride] | Ruminococcus gnavus DSM 108212 | Fulfilled
C[N+]1(C)CCCCC1 | Ruminococcus gnavus DSM 108212 | Fulfilled
C[C@]12CC[C@H](O)C[C@@H]1CC[C@@H]1[C@@H]2CC[C@]2(C)C(=O)CC[C@@H]12 [Epiandrosterone] | Ruminococcus gnavus DSM 108212 | Not fulfilled
COc1ncc(F)c2nc(S(=O)(=O)Nc3c(F)cccc3F)nn12 | Ruminococcus gnavus DSM 108212 | Fulfilled
Cc1ccc(/N=C/N(C)/C=N/c2ccc(C)cc2C)c(C)c1 | Ruminococcus gnavus DSM 108212 | Fulfilled
CC(=O)OC1CN2CCC1CC2 (stereo unspecified) [Aceclidine hydrochloride] | Ruminococcus gnavus DSM 108212 | Fulfilled

====

- Tested on: Ruminococcus gnavus DSM 108212
- ASSAY DETAILS: fold change of Tryptamine concentration vs plate DMSO controls (fold change (ratio)); higher = more amine produced, active = hit call of the paper (significant change in both replicates, either direction)
- CONDITION LABEL: 20 µM; incubation time: 27 h, anaerobic, 37 °C
Structures can show the parent of a compound that is named as a salt.
In this section we review reported fold change of Tryptamine concentration values for a set of compounds.
PARAMETER MEASURED: fold change of Tryptamine concentration

COMPOUND | TESTED TARGET | PARAMETER MEASURED | MEASURED NUMBER
C=CC[C@]1(O)CC[C@H]2[C@@H]3CCC4=CC(=O)CCC4=C3C=C[C@@]21C | Ruminococcus gnavus DSM 108212 | fold change of Tryptamine concentration | 1
CN[C@@H]1C[C@@H](c2ccc(Cl)c(Cl)c2)c2ccccc21 [Indatraline hydrochloride] | Ruminococcus gnavus DSM 108212 | fold change of Tryptamine concentration | 0.8
CCCCN(CCCC)SN(C)C(=O)Oc1cccc2c1OC(C)(C)C2 | Ruminococcus gnavus DSM 108212 | fold change of Tryptamine concentration | 1.01
Cc1c(COC(=O)[C@@H]2[C@H](/C=C(\Cl)C(F)(F)F)C2(C)C)cccc1-c1ccccc1 (racemic) | Ruminococcus gnavus DSM 108212 | fold change of Tryptamine concentration | 1.03
Oc1ccc(Cc2ccc(O)cc2)cc1 | Ruminococcus gnavus DSM 108212 | fold change of Tryptamine concentration | 1.15
C[C@]12CC[C@H](O)C[C@H]1CC[C@@H]1[C@@H]2CC[C@]2(C)[C@@H](C3=CC(=O)OC3)CC[C@]12O | Ruminococcus gnavus DSM 108212 | fold change of Tryptamine concentration | 1.02
CNC(=O)Oc1ccc2c(c1)[C@]1(C)CCN(C)[C@@H]1N2C [Eserine hemisulfate salt] | Ruminococcus gnavus DSM 108212 | fold change of Tryptamine concentration | 1.03
CCc1cc(C)cc(CC)c1-c1c(OC(=O)C(C)(C)C)n2n(c1=O)CCOCC2 | Ruminococcus gnavus DSM 108212 | fold change of Tryptamine concentration | 0.99
